# target_entity: T1, recombinant rat Aggrecan G1-IGD-G2 (rat, UniProt P07897 20-684, limits assumed)
# T1 construct: also called Rat G1-IGD-G2
# assay_explanation: SPR (ProteOn), off-rate only indicative
Please respond with reported log10(koff) for every item in the list.
The base-10 logarithm of koff, taken with koff in s⁻¹, is what appears here.

### Prompt Any idea what its log10(koff) is? The binder is C01010097 (608A05-ALB26) (VHH, not shown: small tags and cut ends) VHH: DVQLVESGGGLVQPGGSLRLSCAASGRTFSTYTMGWFRQAPGKEREFVAAISWSGGTTYYADSVKGRFTISRDNSKNTVYLQMNSLRPEDTAVYYCAARPRYYYYSLYSYDYWGQGTLVTVSS
### Response -2.82

### Prompt Find the recorded log10(koff) belonging to C01010094 (604F02-ALB26) (VHH, not shown: small tags and cut ends, also called C010100094) VHH: DVQLVESGGGLVQPGGSLRLSCAASGRTFSSYTMGWFRQAPGKEREFVAAISWSGGRTYYADSVKGRFTISRDNSKNTVYLQMNSLRPEDTAVYYCAAYRRRRASSNRGLWDYWGQGTLVTVSS and report it.
### Response -0.59

### Prompt // log10(koff) lookup, key: C01010054 (114F08-ALB26) (VHH, not shown: small tags and cut ends, also called C010100054) VHH: EVQLVESGGGLVQAGGSLRLSCAASGSTFIINVVRWYRRTPGKQRELVATISSGGNANYVDSVRGRFSISRDGAKNAVDLQMNGLKPEDTAVYYCNVPTTHYGGVYYGPYWGQGTQVTVSS
### Response -0.19

### Prompt What does the record list as log10(koff) for C01010046 (601E08-ALB26) (VHH, not shown: small tags and cut ends) VHH: DVQLVESGGGLVQPGGSLRLSCTASGRTFSSYAVGWFRQAPGKEREFVAAISRSGRSTYYADSVKGRFTISRDNSKNTVYLQMNSLRPEDTAVYYCAAGLSYYSPHAYYDYWGQGTLVTVSS ?
### Response -3.60

### Prompt Reported log10(koff), binder C01010060 (606A07-ALB26) (VHH, not shown: small tags and cut ends) VHH: DVQLVESGGGLVQPGGSLRLSCVASGRTFSIYGMGWFRQAPGKEREFVAAINGGSRTYYADSVKGRFTISRDNSKNTVYLQMNSLRPEDTAVYYCAADRSGYGTSLDWWYDYWGQGTLVTVSS : ____
### Response -1.68

Entry source: patent US20200140532A1
